- systemUnderTest: T1, full-length human Regnase-1 with a FLAG tag on the N-terminal side and a biotin ligase BirA recognition … (human, UniProt Q5D1E8 1-599, biotinylated where required ; Biotinylated at the BirA recognition sequence where required. That sequence is not in the letters.)
- T1 sequence: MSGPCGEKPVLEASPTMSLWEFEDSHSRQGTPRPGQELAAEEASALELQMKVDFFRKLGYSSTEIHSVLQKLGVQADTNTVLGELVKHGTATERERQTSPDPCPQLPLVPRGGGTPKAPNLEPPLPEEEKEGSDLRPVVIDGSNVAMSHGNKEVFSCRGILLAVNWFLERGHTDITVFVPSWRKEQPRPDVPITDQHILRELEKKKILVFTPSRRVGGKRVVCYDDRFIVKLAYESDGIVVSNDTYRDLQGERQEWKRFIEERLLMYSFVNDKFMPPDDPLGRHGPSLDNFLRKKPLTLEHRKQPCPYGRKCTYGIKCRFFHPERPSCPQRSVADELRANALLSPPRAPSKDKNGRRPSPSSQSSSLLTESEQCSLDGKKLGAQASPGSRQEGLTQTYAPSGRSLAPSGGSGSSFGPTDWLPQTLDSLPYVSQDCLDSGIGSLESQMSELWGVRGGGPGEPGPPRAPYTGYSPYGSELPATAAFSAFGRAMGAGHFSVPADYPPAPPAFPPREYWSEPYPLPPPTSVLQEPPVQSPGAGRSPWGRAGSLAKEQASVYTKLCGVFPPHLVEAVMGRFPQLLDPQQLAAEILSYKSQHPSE
- assayMethodText: cell-based or functional assay
Positions of bridges follow the written chain, without caps; N, C: chain ends. Non-standard residues stand in square brackets, D forms with d. No end group written: not given here. NMeA = CN[C@@H](C)C(=O)O; dNMeA = CN[C@H](C)C(=O)O
Mark each entry Condition met if its IC50, phosphorylation by TBK1 sits below 20 µM, and Condition not met for all others.

INSERT INTO assay_data (binder, categorylabel) VALUES
  ('[NMeA]HSNAWYNIWD (lactam N-11) [PP5]', 'Condition not met'),
  ('[NMeA]WIWDFWNED (lactam N-10) [PP24]', 'Condition not met'),
  ('[NMeA]TSWYKVNWGQD (lactam N-12) [PP1]', 'Condition not met'),
  ('[NMeA]KFWIHHSFED (lactam N-11) [PP20]', 'Condition not met'),
  ('[NMeA]NFSNSWYNIWD (lactam N-12) [PP16]', 'Condition not met'),
  ('[NMeA]DIWFDYWDWD (lactam N-11) [PP17]', 'Condition met'),
  ('[NMeA]RFGVWSWIYPD (lactam N-12) [PP14]', 'Condition met'),
  ('[NMeA]NYQSWYYRSIWD (lactam N-13) [PP10]', 'Condition met'),
  ('[NMeA]NSWYRIWGLD (lactam N-11) [PP22]', 'Condition not met'),
  ('[dNMeA]EDTPEDDHD (lactam N-10) [PP25]', 'Condition met'),
  ('[NMeA]KFAQFRWIYPD (lactam N-12) [PP11]', 'Condition not met');
